# assayed.target: EGFR (A767_dupASV) expressing Ba/F3 stable cell line (Homo sapiens, UniProt P00533, DUP767-769, cells depend on it)
# Sequence (P00533 with tags, fused parts or gaps DUP767-769): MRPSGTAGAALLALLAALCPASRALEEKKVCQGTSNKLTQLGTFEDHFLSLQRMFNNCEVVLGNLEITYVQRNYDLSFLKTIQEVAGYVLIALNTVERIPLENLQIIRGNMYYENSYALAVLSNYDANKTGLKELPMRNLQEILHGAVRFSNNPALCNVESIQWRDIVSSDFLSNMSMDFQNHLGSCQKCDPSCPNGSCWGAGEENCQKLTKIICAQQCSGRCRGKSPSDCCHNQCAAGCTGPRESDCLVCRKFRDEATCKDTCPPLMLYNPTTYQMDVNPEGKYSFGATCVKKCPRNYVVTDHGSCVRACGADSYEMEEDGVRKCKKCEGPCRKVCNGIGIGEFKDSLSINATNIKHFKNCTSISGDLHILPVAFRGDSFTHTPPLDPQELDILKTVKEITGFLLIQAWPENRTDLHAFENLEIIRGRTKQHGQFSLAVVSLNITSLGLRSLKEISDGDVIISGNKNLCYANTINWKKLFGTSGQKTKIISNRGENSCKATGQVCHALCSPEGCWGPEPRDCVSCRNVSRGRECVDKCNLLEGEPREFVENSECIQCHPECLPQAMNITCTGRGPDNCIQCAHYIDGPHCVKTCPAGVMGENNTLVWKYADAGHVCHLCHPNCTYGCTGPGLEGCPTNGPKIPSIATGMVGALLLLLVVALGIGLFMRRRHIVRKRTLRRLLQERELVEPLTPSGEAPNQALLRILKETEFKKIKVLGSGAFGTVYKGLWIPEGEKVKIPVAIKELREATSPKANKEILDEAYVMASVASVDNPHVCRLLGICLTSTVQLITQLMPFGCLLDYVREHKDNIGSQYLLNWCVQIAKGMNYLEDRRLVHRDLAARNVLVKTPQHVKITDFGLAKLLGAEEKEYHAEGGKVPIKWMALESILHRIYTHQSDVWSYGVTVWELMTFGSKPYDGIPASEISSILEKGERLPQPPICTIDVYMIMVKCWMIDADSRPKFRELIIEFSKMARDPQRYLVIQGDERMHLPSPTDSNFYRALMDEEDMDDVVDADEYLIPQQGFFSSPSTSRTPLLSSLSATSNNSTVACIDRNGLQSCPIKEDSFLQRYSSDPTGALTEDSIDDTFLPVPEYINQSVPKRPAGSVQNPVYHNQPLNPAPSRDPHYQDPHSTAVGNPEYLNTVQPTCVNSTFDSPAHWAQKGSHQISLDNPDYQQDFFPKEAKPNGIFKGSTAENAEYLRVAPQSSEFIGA
# assay: Cellular proliferation (Alamar Blue) assay, EGFR A767_dupASV Ba/F3
# Assay type: cell-based
# details: EGFR A767_dupASV Ba/F3, 72 hr, read-out: A767 IC50
Label key: Met means GI50 under 30 nM; Not met means GI50 of 30 nM or more.

Reference set (4 entries):
CN(C)C/C=C/C(=O)Nc1cccc(N2C(=O)N(Cc3ccccc3)Cc3cnc(Nc4cnn(C)c4)nc32)c1 [Compound 49]	Not met
CN(C)C/C=C/C(=O)Nc1cccc(N2C(=O)N(Cc3ccccc3)Cc3cnc(Nc4cccc5c4CCN5C4CCN(C)CC4)nc32)c1 [Compound 98]	Not met
C=CC(=O)Nc1ccc(F)c(N2C(=O)N(Cc3ccccc3)Cc3cnc(Nc4cn(C)nc4Cl)nc32)c1 [Compound 81]	Met
C=CC(=O)Nc1cccc(N2C(=O)N(c3ccccc3)Cc3cnc(Nc4cn(C5CCN(C)CC5)nc4Cl)nc32)c1 [Compound 105]	Met

Asked: # TODO verify GI50 < 30 nM strictly for this compound: C=CC(=O)Nc1cccc(N2C(=O)N(Cc3ccccc3)Cc3cnc(Nc4nc(C)cs4)nc32)c1 [Compound 25]
Given back: Not met

Asked: # TODO verify GI50 < 30 nM strictly for this compound: Cn1cc(Nc2ncc3c(n2)N(c2cccc(NC(=O)/C=C/CF)c2)C(=O)N(c2ccccc2)C3)c(Cl)n1 [Compound 117]
Given back: Not met

Asked: # TODO verify GI50 < 30 nM strictly for this compound: C=CC(=O)Nc1cccc(N2C(=O)N(c3ccccc3)Cc3cnc(Nc4cn(C)nc4Cl)nc32)c1 [Compound 116]
Given back: Met
